The entries below come with measured viability, T/C values attached.
System: 266295-075-R-J1-PDC spheroid viability
Procedure summary: Anticancer human tumor 266295-075-R-J1-PDC patient-derived head and neck squamous carcinoma cell line growth inhibition [POLQ]
Assay context: second compound 0.316 µM; first compound 0.0316 µM; active compounds read low; spheroids with HUVEC and MSC
Measured endpoint: viability, T/C

Compound | Measured target | Measured endpoint | Assay value
CC1COCCN1c1cc(C2(S(C)(=N)=O)CC2)nc(-c2ccnc3[nH]ccc23)n1 (centres undefined) + Cc1cccc(N(C)C(=O)C2C(O)CCN2c2nc(C)cc(C(F)(F)F)c2C#N)c1 | 266295-075-R-J1-PDC spheroid viability | viability, T/C | 89.8%
CC(C)n1c(=O)n(C)c2cnc3cc(F)c(-c4ccc(OCCCN5CCCCC5)nc4)cc3c21 + Cc1cccc(N(C)C(=O)C2C(O)CCN2c2nc(C)cc(C(F)(F)F)c2C#N)c1 | 266295-075-R-J1-PDC spheroid viability | viability, T/C | 125%
CCc1c2c(nc3ccc(O)cc13)-c1cc3c(c(=O)n1C2)COC(=O)[C@]3(O)CC + COC1C(OC(N)=O)C(O)C(Oc2ccc3c(O)c(NC(=O)c4ccc(O)c(CC=C(C)C)c4)c(=O)oc3c2C)OC1(C)C | 266295-075-R-J1-PDC spheroid viability | viability, T/C | 85.6%
CCc1c2c(nc3ccc(O)cc13)-c1cc3c(c(=O)n1C2)COC(=O)[C@]3(O)CC + Cc1cccc(N(C)C(=O)C2C(O)CCN2c2nc(C)cc(C(F)(F)F)c2C#N)c1 | 266295-075-R-J1-PDC spheroid viability | viability, T/C | 87.2%

###

Tested on: 266295-075-R-J1-PDC spheroid viability
Procedure summary: Anticancer human tumor 266295-075-R-J1-PDC cell line growth inhibition [POLQ];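 also: spheroids exposed to compounds for seven days before readout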
Assay context: second compound 0.1 µM; first compound 0.1 µM; active compounds read low; spheroids with HUVEC and MSC

Compound | viability, T/C / %
CCCS(=O)(=O)Nc1ccc(F)c(C(=O)c2c[nH]c3ncc(-c4ccc(Cl)cc4)cc23)c1F + COC1C(OC(N)=O)C(O)C(Oc2ccc3c(O)c(NC(=O)c4ccc(O)c(CC=C(C)C)c4)c(=O)oc3c2C)OC1(C)C | 121
C=CCn1c(=O)c2cnc(Nc3ccc(N4CCN(C)CC4)cc3)nc2n1-c1cccc(C(C)(C)O)n1 + COC1C(OC(N)=O)C(O)C(Oc2ccc3c(O)c(NC(=O)c4ccc(O)c(CC=C(C)C)c4)c(=O)oc3c2C)OC1(C)C | 82.7
CC1COCCN1c1cc(C2(S(C)(=N)=O)CC2)nc(-c2ccnc3[nH]ccc23)n1 (stereo not given) + Cc1cccc(N(C)C(=O)C2C(O)CCN2c2nc(C)cc(C(F)(F)F)c2C#N)c1 | 83.5
O=c1[nH]cc(F)c(=O)[nH]1 + Cc1cccc(N(C)C(=O)C2C(O)CCN2c2nc(C)cc(C(F)(F)F)c2C#N)c1 | 87.6
CCc1cc2c(N3CCc4c(cc(Cn5ccnc5)cc4-c4cn(C)nc4C(F)(F)F)C3=O)ccnc2c(OC)n1 + Nc1ccc(C#CCN(C(=O)Cc2ncc(C(F)(F)F)cc2C(F)(F)F)c2ccc(F)cc2)nn1 | 110

###

Tested on: 266295-075-R-J1-PDC spheroid viability
Procedure summary: Anticancer human tumor 266295-075-R-J1-PDC cell line growth inhibition [POLQ];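 also: spheroids exposed to compounds for seven days before readout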
Assay context: second compound 1 µM; first compound 10 µM; active compounds read low; spheroids with HUVEC and MSC
viability, T/C less than 80% is Y; viability, T/C greater than or equal to 80% is N.

Molecule | Group
O=C(c1cc(Cc2n[nH]c(=O)c3ccccc23)ccc1F)N1CCN(C(=O)C2CC2)CC1 + Nc1ccc(C#CCN(C(=O)Cc2ncc(C(F)(F)F)cc2C(F)(F)F)c2ccc(F)cc2)nn1 | N
CC1COCCN1c1cc(C2(S(C)(=N)=O)CC2)nc(-c2ccnc3[nH]ccc23)n1 (configuration not stated) + Cc1cccc(N(C)C(=O)C2C(O)CCN2c2nc(C)cc(C(F)(F)F)c2C#N)c1 | Y
CCc1cc2c(N3CCc4c(cc(Cn5ccnc5)cc4-c4cn(C)nc4C(F)(F)F)C3=O)cc(C)nc2c(OC)n1 + COC1C(OC(N)=O)C(O)C(Oc2ccc3c(O)c(NC(=O)c4ccc(O)c(CC=C(C)C)c4)c(=O)oc3c2C)OC1(C)C | N
CCc1cc2c(N3CCc4c(cc(Cn5ccnc5)cc4-c4cn(C)nc4C(F)(F)F)C3=O)ccnc2c(OC)n1 + Cc1cccc(N(C)C(=O)C2C(O)CCN2c2nc(C)cc(C(F)(F)F)c2C#N)c1 | N
COc1cccc2c1C(=O)c1c(O)c3c(c(O)c1C2=O)CC(O)(C(=O)CO)CC3OC1CC(N)C(O)C(C)O1 (configuration not stated) + COC1C(OC(N)=O)C(O)C(Oc2ccc3c(O)c(NC(=O)c4ccc(O)c(CC=C(C)C)c4)c(=O)oc3c2C)OC1(C)C | Y
COc1cc(C2c3cc4c(cc3C(OC3OC5COC(C)OC5C(O)C3O)C3COC(=O)C23)OCO4)cc(OC)c1O (configuration not stated) + Nc1ccc(C#CCN(C(=O)Cc2ncc(C(F)(F)F)cc2C(F)(F)F)c2ccc(F)cc2)nn1 | N
